target: pooled human IgG
# reported Enzyme Activity Endpoint Assay (purified): Fab'2; entries follow
MEASUREMENT_NAME: Enzyme Activity Endpoint Assay (purified): Fab'2 (ng/µL)

• PRT-164 (protein) MANQEIRYSEVTPYHVTSVWTKGVTPPANFTQGEDVFHAPYVANQGWYDITKTFNGKDDLLCGAATAGNMLHWWFDQNKDQIKRYLEEHPEKQKINFNGEQMFDVKEAIDTKNSQENSELFNYFKEKAFPYLSTKHLGVFPDHVIDMFINGYRLSLTNHGPTPVKEGSKDPRGGIFDAVFTRGDQSKLLTSRHDFKEKNLKEISDLIKKELTEGKALGLSHTYANVRINHVINLWGADFDSNGNLKAIYVTDSDSNASIGMKKYFVGVNSAGKVAISAKEIKEDNIGAQVLGLFTLSTGQDSWNQTN = 508
• PRT-154 (protein) MANQEIRYSEVTPYHVTSVWTKGVTPPANFTQGEDVFHAPYVANQGWYDITKTFNGKDDLLCGAATAGNMLHWWFDQNKTQIEAYLKKHPEKQKINFNGEQMFDVKEAIDTKNHQLDSKLFEYFKEKAFPYLSTKHLGVFPDHVIDMFINGYRLSLTNHGPTPVKEGSKDPRGGIFDAVFTRGDQSKLLTSRHDFKEKNLKEISDLIKKELTEGKALGLSHTYANVRINHVINLWGADFDSNGNLKAIYVTDSDSNASIGMKKYFVGVNSAGKVAISAKEIKEDNIGAQVLGLFTLSTGKKSWEKTN = 733
• PRT-149 (protein) MANQEIRYSEVTPYHVTSVWTKGVTPPANFTQGEDVFHAPYVANQGWYDITKTFNGKDDLLCGAATAGNMLHWWFDQNKDQIKRYLEEHPEKQKINFNGEQMFDVKEAIDTKNHQLDSKLFEYFKEKAFPYLSTKHLGVFPDHVIDMFINGYRLSLTNHGPTPVKRQTKDPRGGIFDAVFGRGDQTKLLTSRHDFKEKNLKEISDLIKKELTEGKALGLSHTYANVRINHVINLWGADFDSNGNLKAIYVTDSDSNASIGMKKYFVGVNSAGKVAISAKEIKEDNIGAQVLGLFTLSTGQKSWNKTN = 831
